Kindly state %Inh for each of the entries shown.
# Tested on: CDK4
# condition context: concentration: 1 μM,replicates: in singlicate; n = 1;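 note: KINOMEscan kinase panel screen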
Give bare numbers, in %.

// batch mode: one %Inh value per listed entry
1. CCN(CC)CCCCNc1ncc2cc(-c3c(Cl)cccc3Cl)c(NC(=O)NC(C)(C)C)nc2n1
2. Cc1ccc2c(-c3ccncc3)c(-c3ccc(F)cc3)nn2c1.Cl
3. O=C(NCCCN1CCOC1=O)c1cnc(NCc2cc(Cl)ccc2Cl)nc1NC1CCCC1
4. CN(C)CC(O)COc1ccc(Nc2nccc(-c3cnn4nc(N5CCOCC5)ccc34)n2)cc1 (centres unmarked)
5. Cl.Cl.Nc1nc(-c2ccc3c(N)n[nH]c3c2)cc(N2CCCC(NC(=O)c3ccccc3)C2)n1 (centres unmarked)
6. Cc1cc2cn[nH]c2cc1-c1cccc2c(N)c(C(N)=O)nnc12

1: 9; 2: 28; 3: 12; 4: 100; 5: 0; 6: 18

* * *

Kindly state %Inh for each of the entries shown.
# Tested on: SRMS
# condition context: concentration: 1 μM,replicates: in singlicate; n = 1
Answer format: value, then unit.

smiles notation	value kind	reported
CCN(CC)CCOc1ccc(Nc2ncc3cc(-c4c(Cl)cccc4Cl)c(=O)n(C)c3n2)cc1	%Inh	90.8%
Cc1ccc(-n2nc(C(C)(C)C)cc2NC(=O)Nc2ccc(OCCN3CCOCC3)c3ccccc23)cc1	%Inh	8%
Cc1occc1-c1nc(N)c(OC[C@@H](N)Cc2c[nH]c3ccccc23)cc1-c1cc2c(C)n[nH]c2cn1	%Inh	0%

// batch mode: one %Inh value per listed entry
1. Cc1cc2cn[nH]c2cc1-c1cccc2c(N)c(C(N)=O)nnc12
2. Nc1nc(Nc2ccccc2)cc(-c2ccc3c(N)n[nH]c3c2)n1

1: 35%; 2: 0%

* * *

Kindly state %Inh for each of the entries shown.
# System: IGF1R
# condition context: concentration: 1 μM,replicates: in singlicate; n = 1
One number for each entry, in %.

Here's what some known entries look like.
compound	%Inh [%]
Cc1ccc2c(-c3ccncc3)c(-c3ccc(F)cc3)nn2c1.Cl [GW461484]	16
COc1ccc(C[C@@H](CN)NC(=O)c2cc(Br)c(-c3ccnc4[nH]ccc34)s2)cc1.Cl.Cl [GSK1389063]	0
Cc1n[nH]c2ccc(-c3cc(OC[C@@H](N)Cc4ccccc4)cnc3-c3ccoc3)cc12.O=C(O)C(F)(F)F.O=C(O)C(F)(F)F [GSK507358]	17

// batch mode: one %Inh value per listed entry
1. CC(C)N1C(=O)Cc2cc(Nc3ncc(C(F)(F)F)c(NCc4cccc(S(C)(=O)=O)c4)n3)ccc21
2. CCN(CC)CCCCNc1ncc2cc(-c3c(Cl)cccc3Cl)c(NC(=O)NC(C)(C)C)nc2n1
3. Nc1nc(Nc2ccccc2)cc(-c2ccc3c(N)n[nH]c3c2)n1 [GSK2225749]
4. CCn1c(-c2nonc2N)nc2c(C#CC(C)(C)O)nc(OCCN)cc21.Cl.Cl [GSK902056]
5. Cl.Oc1cc(-c2nc(-c3ccccc3)[nH]c2-c2ccncc2)ccc1Cl [SB-386023]

1: 29; 2: 0; 3: 0; 4: 0; 5: 0

* * *

Kindly state %Inh for each of the entries shown.
# Tested on: FLT4
# condition context: concentration: 1 μM,replicates: in singlicate; n = 1

smiles notation	%Inh
CC(C)Nc1cc(-c2ccc3c(N)n[nH]c3c2)nc(N)n1	14%

// batch mode: one %Inh value per listed entry
1. C[C@@H]1CCN(C(=O)CC#N)C[C@@H]1N(C)c1ncnc2[nH]ccc12
2. Cc1n[nH]c2ccc(-c3cc(OC[C@@H](N)Cc4ccccc4)cnc3-c3ccoc3)cc12.O=C(O)C(F)(F)F.O=C(O)C(F)(F)F
3. Cl.Cl.NC[C@H](Cc1ccc(C(F)(F)F)cc1)NC(=O)c1cc(Br)c(-c2ccnc3[nH]ccc23)s1

1. 0%
2. 5%
3. 54%

Hello, the source for this data is paper PMC5540273, in case you need it.
